Recorded MIC values for a group of substances are listed next.
System: E. coli DH5α
assayProcedure: Antibacterial activity: MIC and growth curve against E. coli DH5α in 96-well plate
Assay type: cell-based
testContext: minimal inhibitory concentration against E. coli DH5α; 96-well plate, 5×10^5 CFU/mL, 37° C., judged after 8 h
Experimental: 1. E. coli DH5α was exemplified. E. coli DH5α was streaked and cultured on LB solid medium. […] 4. […] Samples were taken every 30 min, the absorbance values were determined at 600 nm wavelength under a ultra violet spectrophotometer, and an inhibition curve was plotted. […] According to the experimental procedures in Example 14, the minimal inhibitory concentrations (MIC, μg/mL) of the other human-originated EGF domain proteins (PRT2 to PRT1498 in Table 1) for E. coli DH5α were determined.
metricName: MIC (µg/mL)

substance: PRT617 (CNCNSKGSLSARCDNSGRCSCKPGVTGARCDRCLPGFHMLTDAGCTQ; listed as Homo sapiens)
val: 25

substance: PRT121 (CGPCFNNGVPILEGTSCRCQCRLGSLGAACE; listed as Homo sapiens)
val: 25

substance: PRT1177 (DANECEAKPCVNAKSCKNLIASYYCDCLPGWMGQNCD; listed as Homo sapiens)
val: 50

substance: PRT780 (EYSSCSRHPCQNGGTCINGRTSFTCACRHPFTGDNCT; listed as Homo sapiens)
val: 12.5

substance: PRT1169 (RDSQCDEATCNNGGTCYDEGDAFKCMCPGGWEGTTCN; listed as Homo sapiens)
val: 50

substance: PRT706 (EVNHCSNYCQNGGTCVPSVLGRPTCSCALGFTGPNCG; listed as Homo sapiens)
val: 25

substance: PRT521 (CNCNSFGSKSFDCEESGQCWCQPGVTGKKCDRCAHGYFNFQEGGCTA; listed as Homo sapiens)
val: 50

substance: PRT664 (DINECLTLGLCKDAECVNTRGSYLCTCRPGLMLDPSRSRCV; listed as Homo sapiens)
val: 25

###

Tested on: Pseudomonas aeruginosa
assayProcedure: MIC against Gram-negative bacteria: Pseudomonas aeruginosa
Assay type: cell-based
testContext: P. aeruginosa; 10 h cultivation at 37° C.; 5×10^5 CFU/mL
Description: 1. Gram-negative bacteria, such as E. coli BL21, Pseudomonas aeruginosa, Klebsiella pneumonia, Enterobacter cloacae, Aeromonas hydrophila, Citrobacter diversus, Moraxella catarrhalis, Proteus mirabilis, Proteus vulgaris, Serratia marcescens, etc were streaked on solid LB medium and cultured respectively. Then, typical clones were picked, inoculated into common liquid LB medium respectively, and cultured at 37° C. with shaking at 185 rpm until the McFarland specific turbidity was 0.5. […]

substance: PRT424 (DINECVTDLHTCSRGEHCVNTLGSFHCYKALTCEPGYALKDGECE; listed as Homo sapiens)
testedTarget: Pseudomonas aeruginosa
MIC / µg/mL: 25
//
substance: PRT412 (LNDRCRGGGPCKQQCRDTGDEVVCSCFVGYQLLSDGVSCE; listed as Homo sapiens)
testedTarget: Pseudomonas aeruginosa
MIC / µg/mL: 12.5
//
substance: PRT398 (DDNECHAQPDLCVNGRCVNTAGSFRCDCDEGFQPSPTLTECH; listed as Homo sapiens)
testedTarget: Pseudomonas aeruginosa
MIC / µg/mL: 50
//
substance: PRT433 (DIDECRYGYCQQLCANVPGSYSCTCNPGFTLNEDGRSCQ; listed as Homo sapiens)
testedTarget: Pseudomonas aeruginosa
MIC / µg/mL: 12.5
//
substance: PRT429 (DVNECEAQRCSQECANIYGSYQCYCRQGYQLAEDGHTCT; listed as Homo sapiens)
testedTarget: Pseudomonas aeruginosa
MIC / µg/mL: 50
//
substance: PRT428 (DVNECWASPGRLCQHTCENTLGSYRCSCASGFLLAADGKRCE; listed as Homo sapiens)
testedTarget: Pseudomonas aeruginosa
MIC / µg/mL: 12.5
//
substance: PRT317 (VTDYCQLVRYLCQNGRCIPTPGSCRCECNKGFQLDLRGECI; listed as Homo sapiens)
testedTarget: Pseudomonas aeruginosa
MIC / µg/mL: 12.5
//
substance: PRT425 (DVDECAMGTHTCQPGFLCQNTKGSFYCQARQRCMDGFLQDPEGNCV; listed as Homo sapiens)
testedTarget: Pseudomonas aeruginosa
MIC / µg/mL: 50
//
substance: PRT417 (DVNECQRYPGRLCGHKCENTLGSYLCSCSVGFRLSVDGRSCE; listed as Homo sapiens)
testedTarget: Pseudomonas aeruginosa
MIC / µg/mL: 25
//
substance: PRT418 (DINECSSSPCSQECANVYGSYQCYCRRGYQLSDVDGVTCE; listed as Homo sapiens)
testedTarget: Pseudomonas aeruginosa
MIC / µg/mL: 12.5
//
substance: PRT432 (DVDECATDSHQCNPTQICINTEGGYTCSCTDGYWLLEGQCL; listed as Homo sapiens)
testedTarget: Pseudomonas aeruginosa
MIC / µg/mL: 25
//
substance: PRT399 (DVDECRMLAHLCAHGECINSLGSFRCHCQAGYTPDATATTCL; listed as Homo sapiens)
testedTarget: Pseudomonas aeruginosa
MIC / µg/mL: 12.5
//
substance: PRT439 (DINECQESSPCHQRCFNAIGSFHCGCEPGYQLKGRKCM; listed as Homo sapiens)
testedTarget: Pseudomonas aeruginosa
MIC / µg/mL: 25
//
substance: PRT403 (DNDECSAQPGPCGAHGHCHNTPGSFRCECHQGFTLVSSGHGCE; listed as Homo sapiens)
testedTarget: Pseudomonas aeruginosa
MIC / µg/mL: 50
//
substance: PRT423 (QPNTCKDNGPCKQVCSTVGGSAICSCFPGYAIMADGVSCE; listed as Homo sapiens)
testedTarget: Pseudomonas aeruginosa
MIC / µg/mL: 12.5
